These data points were gathered from the supplement of paper PMC10567573.

B1: PRPH (parent)
chain: RTFGPPPSLSPGAFSYSSSSRFSS

# Variants of: B1
# ASSAY_TEXT: protein stability index of a GFP-peptide fusion (GPS, HEK-293T) (PSI 1-6); higher = more stable;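 also: lentivirally expressed fusions sorted by FACS into six bins by GFP to DsRed ratio, PSI derived from sequencing read proportions per bin multiplied by bin number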
# TEST_PARAMETERS: c terminus: a fixed tail appended
Give measured protein stability index for each item. Keep answers brief.
One number for each entry.

{"SEQUENCE_CHANGE": "R21V", "QUANTITATIVE_RESULT": 3.1}

Hi there! I need protein stability index for each item below, if you can.
1. S10H
2. S24W
3. F14C
4. T2P
5. G4F

Response line:
3.13
2.82
3.09
3.08
3.06

Hi there! I need protein stability index for each item below, if you can.
1. S15Q
2. S20D
3. Y16H

Response line:
3.18
3.23
4.04

Hi there! I need protein stability index for each item below, if you can.
1. F22W
2. P11R
3. S20N
4. T2C
5. S15G
6. S17K
7. S10I
8. S19Q

Response line:
[2.83, 3.63, 3.31, 2.02, 3.64, 3.04, 3.19, 2.66]

Hi there! I need protein stability index for each item below, if you can.
1. P11H
2. S8D
3. R21F
4. F3M
5. S18T

Response line:
1: 2.74; 2: 3.04; 3: 2.25; 4: 3.75; 5: 3.25
